Please provide measured EC50 for the entries that follow.
Biological target: T1, LILRB2-His antigen (UniProt Q8N423 22-460, limits assumed)
T1 construct: Coated on ELISA plates; also used for phage panning; also called LILRB2 antigen; not shown: His tag
Assay: indirect ELISA, coated LILRB2-His

// known answers, use as guide
What the record says about B2-4 (antibody, V domains shown, also called B2-4_HC; B2-4_LC) VH: QVQLVQSGPTVRKPGASVRVSCKASGYPFTSNGMSWVRQAPGQGLEWMGWISTNSGNTNYAQKFQGRVTLTTDTSSTTTYLDLRSLTSDDTAIYYCARDVQYRMDVWGQGTTVTVSS VL: QSVLTQPPSASGTPGQRVTISCSGSRSNIGSNPVNWYQHLPGTAPKLLVYSNNRRPSGVPDRFSGSKSGTSASLSISGLQSEDEGVYYCAAWDDNVHGVFGGGTKVTVL : EC50 is 1.76 nM

What the record says about B2-7 (antibody, V domains shown, also called B2-7_HC; B2-7_LC) VH: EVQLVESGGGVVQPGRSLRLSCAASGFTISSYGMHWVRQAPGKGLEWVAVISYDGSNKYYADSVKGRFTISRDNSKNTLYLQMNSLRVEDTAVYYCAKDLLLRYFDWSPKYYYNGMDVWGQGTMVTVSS VL: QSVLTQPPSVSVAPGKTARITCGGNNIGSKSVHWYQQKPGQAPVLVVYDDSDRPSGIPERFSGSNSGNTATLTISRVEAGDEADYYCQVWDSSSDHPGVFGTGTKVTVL : EC50 is 82.9 nM

# evaluate next
What the record says about B2-16 (antibody, V domains shown, also called B2-16_HC; B2-16_LC) VH: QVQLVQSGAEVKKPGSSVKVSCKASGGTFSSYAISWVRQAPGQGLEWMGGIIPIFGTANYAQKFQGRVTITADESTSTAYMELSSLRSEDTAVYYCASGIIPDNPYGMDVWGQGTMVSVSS VL: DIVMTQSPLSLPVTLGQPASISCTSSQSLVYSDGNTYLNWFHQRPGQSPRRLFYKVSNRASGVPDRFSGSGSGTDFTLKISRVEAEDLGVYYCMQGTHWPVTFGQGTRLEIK : EC50 is 9.97 nM

Values compiled from patent US20230068663A1.
